- Tested on: DU-145 prostate
- experimental_protocol: NCI tumour cell line growth inhibition, 48 h
readout_name: TGI (µM)
Numeric only. Scale: µM

Lookup result for CCCCCC(=O)O[C@]1(C(C)=O)CCC2C3CCC4=CC(=O)CC[C@]4(C)C3CC[C@@]21C (stereo not given in full) ; measured TGI: 13.4

Lookup result for COc1ccc(-c2cc(/C=C/C(=O)c3ccc(N)cc3)[nH]n2)cc1OC ; measured TGI: 13.5

* * *

- Test system: SK-OV-3 ovarian
- experimental_protocol: NCI tumour cell line growth inhibition, 48 h
readout_name: TGI

Lookup result for COc1cc(OC)c(OC)cc1/C=C/c1nc2ccccc2s1 ; measured TGI: > 100 µM

Lookup result for Cc1ccc(N=N/C(=N/NC(=O)c2ccccc2)c2ccc(N(CCC#N)CCC#N)cc2C)cc1 ; measured TGI: > 100 µM

Lookup result for CC1=NN(c2nc(N)nc(C(C)Cl)n2)C(C)(C)C1 (stereo unspecified) ; measured TGI: > 100 µM

Lookup result for COC(=O)[C@@H]1CO[C@H](C(C)(C)C)N1C(=O)N1C=CC(=O)C[C@H]1C ; measured TGI: > 100 µM

Lookup result for COC1(OC)c2occc2C(=N)c2ccc(=O)oc21 ; measured TGI: > 100 µM

Lookup result for CC(C)(CN1CCCCC1)C(=O)/C=C/c1ccc(Br)cc1 ; measured TGI: 8.18 µM

* * *

- System: SK-MEL-2 melanoma
- experimental_protocol: NCI tumour cell line growth inhibition, 48 h
readout_name: GI50

Lookup result for C#Cc1ccc(-n2c(/C=C/c3ccc(O)cc3)nc3ncccc3c2=O)cc1 ; measured GI50: 3.95 µM

Lookup result for COc1ccc(/C=C2\CCC/C(=C\c3ccc(OC)c(OC)c3)C2=O)cc1OC ; measured GI50: 5.02 µM

Lookup result for CCN(CC)c1ccc2nc3ccc(=[N+](CC)CC)cc-3oc2c1 ; measured GI50: 1.36 µM

Lookup result for O=C(c1cccs1)c1c(C(F)(F)F)n([O-])c2cc(Cl)c(Cl)cc2[n+]1=O ; measured GI50: 2.7 µM

Lookup result for CCSCC1CC(O)(c2ccccc2)C(c2ccccc2)C(c2ccc(F)cc2)O1 (centres undefined) ; measured GI50: 1.98 µM

Lookup result for CSc1nc2nc(-c3ccccc3)c(C)c-2c2n1C(C)C(=O)N2 (centres undefined) ; measured GI50: 30.1 µM

Lookup result for COc1ccc(Nc2cnc3cc(N)cc(N)c3n2)cc1 ; measured GI50: 14.4 µM

Lookup result for OCC1CC[N-]CC1.OCC1CC[N-]CC1.[Cl][Pt+2]([Cl])([Cl])[Cl] ; measured GI50: 27 µM

Lookup result for CCCCS(=O)c1sc2nc(-c3cccs3)cc(-c3ccccc3)c2c1N (centres undefined) ; measured GI50: 17.3 µM

* * *

- System: ACHN renal
- experimental_protocol: NCI tumour cell line growth inhibition, 48 h
readout_name: TGI

Lookup result for O=C(CCc1cc(O)cc(O)c1)NCCc1cc(O)cc(OCc2ccccc2)c1 ; measured TGI: 81.6 µM

Lookup result for COc1ccc2c(C(=O)O)cc3ccccc3c2c1OC ; measured TGI: 29.8 µM

Lookup result for N#Cc1sc2nc3ccccc3n2c1N ; measured TGI: > 100 µM

Lookup result for c1cc(-c2ccc(-c3ccsc3)s2)cs1 ; measured TGI: > 100 µM

Lookup result for NC1=NC2(COC(c3ccccc3)(c3ccccc3)c3ccccc3)OC(COC(c3ccccc3)(c3ccccc3)c3ccccc3)C(O)C2O1 (centres undefined) ; measured TGI: > 100 µM

Lookup result for OC(c1ccccc1Br)(c1ccccc1Br)C(F)(F)F ; measured TGI: 38.3 µM

Lookup result for Cc1nc2ccccc2c(=O)n1/N=C(\N=Nc1ccccc1Cl)c1ccccc1Cl ; measured TGI: > 100 µM

Lookup result for CN=c1sc2c(n1C)C(=O)c1ccccc1C2=O ; measured TGI: 19.2 µM

Lookup result for Cc1ccc(NC(=O)c2cc(S(=O)(=O)Nc3nnc(-c4ccccc4)c(-c4ccccc4)n3)c(SCc3ccccc3)cc2Cl)cc1 ; measured TGI: 31.3 µM
